- Target Under Test: Bile acid receptor (Homo sapiens) (UniProt Q96RI1)
- Sequence (Q96RI1 whole entry, looked up): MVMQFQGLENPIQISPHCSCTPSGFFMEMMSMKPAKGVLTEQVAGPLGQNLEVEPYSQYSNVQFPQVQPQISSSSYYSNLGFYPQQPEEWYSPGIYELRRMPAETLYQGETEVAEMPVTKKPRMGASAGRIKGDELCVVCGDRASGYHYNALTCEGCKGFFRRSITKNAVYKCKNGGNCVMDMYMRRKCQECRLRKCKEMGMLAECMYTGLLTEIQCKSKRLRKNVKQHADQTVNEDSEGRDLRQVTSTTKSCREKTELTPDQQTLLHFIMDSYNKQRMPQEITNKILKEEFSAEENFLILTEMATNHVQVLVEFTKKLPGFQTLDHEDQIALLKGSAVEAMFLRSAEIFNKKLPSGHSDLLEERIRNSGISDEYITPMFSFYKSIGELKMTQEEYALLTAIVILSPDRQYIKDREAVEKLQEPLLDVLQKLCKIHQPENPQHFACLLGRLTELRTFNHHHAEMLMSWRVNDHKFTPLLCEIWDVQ
- Protocol Details: OT_FXR_FXRSRC1_1440: Odyssey Thera (OT) 24-hour HEK293T Protein-Complementation Assay for Farnesoid X receptor/SRC-1 Co-activator (AID 2283384)
Results filed as inconclusive are left out. Active and inactive are the calls of the source. Rule for the calls: active = hit-call score of the fitted dose curve at least 0.9, where 1 is the maximum; inconclusive = response in the unintended direction; inactive = score below 0.9.
// classify into 1 for active, 0 for inactive

Solved entries:
molecule=C=CCC1=C(C)[C@@H](OC(=O)[C@@H]2[C@@H](C=C(C)C)C2(C)C)CC1=O target_under_test="Bile acid receptor (Homo sapiens) (UniProt Q96RI1)" class_name=1
molecule="Cc1c(F)c(F)c(COC(=O)C2C(/C=C(\\Cl)C(F)(F)F)C2(C)C)c(F)c1F (stereo unspecified)" target_under_test="Bile acid receptor (Homo sapiens) (UniProt Q96RI1)" class_name=0
molecule="COP(N)(=O)SC (stereo unspecified)" target_under_test="Bile acid receptor (Homo sapiens) (UniProt Q96RI1)" class_name=0

Qu. Any idea what this test logged for `CCOP(=S)(OCC)SCn1c(=O)oc2cc(Cl)ccc21` ?
Ans. 1

Qu. In this assay, the call recorded for CCCCC(CC)COC(=O)c1ccccc1C(=O)OCC(CC)CCCC (stereo unspecified) was what?
Ans. 0

Qu. What classification did C#CCOS(=O)OC1CCCCC1Oc1ccc(C(C)(C)C)cc1 (stereo unspecified) end up with in this test?
Ans. 1

====

- Target Under Test: frog Thyroid hormone Receptor alpha (TRa), thra-a (gene 397942)
- Protocol Details: ATG_frTRa_XSP1: Attagene TRANS-FACTORIAL Multi-Species (XSP1) HepG2 Assay for frog Thyroid hormone Receptor alpha (TRa) (AID 2283804)
Results filed as inconclusive are left out. Active and inactive are the calls of the source. Rule for the calls: active = hit-call score of the fitted dose curve at least 0.9, where 1 is the maximum; inconclusive = response in the unintended direction; inactive = score below 0.9.
Classes to choose from: active, inactive

compound=CC(C)(C)c1ccc(CSc2cnn(C(C)(C)C)c(=O)c2Cl)cc1 target_under_test="frog Thyroid hormone Receptor alpha (TRa), thra-a (gene 397942)" class_name=active

Qu. Entry `COC(=O)N(OC)c1ccccc1COc1ccn(-c2ccc(Cl)cc2)n1` : call = ?
Ans. inactive

Qu. // outcome(item) with item = C=CC1(C)OC(=O)N(c2cc(Cl)cc(Cl)c2)C1=O (stereo not given)
Ans. inactive

Qu. Recorded test outcome, item `CCCCNC(=O)OCC#CI`
Ans. inactive

Qu. Field: outcome | Entry: CCCC1COC(Cn2cncn2)(c2ccc(Cl)cc2Cl)O1 (stereo not given)
Ans. inactive

====

- Read-out: Monokine induced gamma interferon (MIG), CXCL9 (gene 4283)
- Protocol Details: BSK_SAg_MIG: BioMAP Diversity Plus: SAg Assay for Monokine induced gamma interferon (MIG) Biomarker Activity (AID 2283092)
- Particulars: primary human HUVEC with PBMC; actives raise or lower the signal
Activity calls are given as the source filed them. The calls were made as follows: active = hit-call score of the fitted dose curve at least 0.9, where 1 is the maximum; inactive = score below 0.9.
Parameter Measured: AC50

Example entries and their recorded answers appear below.
compound=C=CCC1=C(C)[C@@H](OC(=O)[C@@H]2[C@@H](C=C(C)C)C2(C)C)CC1=O endpoint_value="38.9 µM (active)"
compound="N#Cc1nn(-c2c(Cl)cc(C(F)(F)F)cc2Cl)c(N)c1S(=O)C(F)(F)F (configuration not stated)" endpoint_value="35 µM (active)"
compound=COC(=O)C=C(C)OP(=O)(OC)OC endpoint_value=inactive
compound=CON(C)C(=O)Nc1ccc(Cl)c(Cl)c1 endpoint_value=inactive
compound="COP(N)(=O)SC (configuration not stated)" endpoint_value=inactive
compound="Cc1c(F)c(F)c(COC(=O)C2C(/C=C(\\Cl)C(F)(F)F)C2(C)C)c(F)c1F (configuration not stated)" endpoint_value=inactive
compound="C=CC1(C)OC(=O)N(c2cc(Cl)cc(Cl)c2)C1=O (configuration not stated)" endpoint_value=inactive
compound="N#CC(CCc1ccc(Cl)cc1)(Cn1cncn1)c1ccccc1 (configuration not stated)" endpoint_value=inactive

Qu. Hello, please tell me recorded AC50 for this one: C#CCOS(=O)OC1CCCCC1Oc1ccc(C(C)(C)C)cc1 (configuration not stated)
Ans. 16.7 µM (active)

Qu. Report AC50, nothing else, for this compound: `Cc1cc(Cl)ccc1OCC(=O)O`
Ans. inactive

Qu. Assign AC50 to the following record: CCON=C(CC)C1=C(O)CC(c2c(C)cc(C)cc2C)CC1=O (configuration not stated)
Ans. inactive

Qu. Name the recorded AC50 of the item `O=C(O)c1nc(Cl)ccc1Cl` in your answer.
Ans. inactive

These data points were gathered from PubChem BioAssay (EPA / NIEHS).
